Below, each of the molecules is paired with its reported normalised response value.
- Tested on: MDA-MB-231
- Assay: normalised response (% of control), CellTiter-Glo; higher = more viable cells (100 = DMSO, 0 = benzethonium chloride kill control)
- Test Parameters: incubation time: 72 h

{"columns": ["Molecule", "Study System", "Display Unit", "normalised response"],
 "data": [
  ["COCC[n+]1c2c(n(Cc3cnccn3)c1C)C(=O)c1ccccc1C2=O [YM155] (100 nM)", "MDA-MB-231", "%", 1.55],
  ["CC(C)C[C@@H](C(=O)N[C@H](C(=O)OC1CCCC1)c1ccccc1)[C@H](O)C(=O)NO [Tosedostat] (100 nM)", "MDA-MB-231", "%", 70.2],
  ["COc1cc(OC2CCN(C)CC2)ccc1Nc1ncc2c(n1)n(C1CCCC1)c(=O)n2C [AZ 3146] (100 nM)", "MDA-MB-231", "%", 99.1],
  ["CN(C)c1nc(N(C)C)nc(N(C)C)n1 [Altretamine] (100 nM)", "MDA-MB-231", "%", 99.5],
  ["O=C(/C=C/c1cccc(S(=O)(=O)Nc2ccccc2)c1)NO [Belinostat] (100 nM)", "MDA-MB-231", "%", 85.5],
  ["c1ccc2c(CCNc3ccc(Nc4ccncc4)cc3)c[nH]c2c1 [Serdemetan] (100 nM)", "MDA-MB-231", "%", 98],
  ["CCOC(=O)CCNc1cc(N2CCc3ccccc3CC2)nc(-c2ccccn2)n1 [GSK-J4] (1000 nM)", "MDA-MB-231", "%", 95.8]
]}
